assay system: Urease subunit alpha/Urease subunit beta (Helicobacter pylori (strain ATCC 700392 / 26695) (Campylobacterpylori), UniProt P69996)
Sequence (P69996 whole entry): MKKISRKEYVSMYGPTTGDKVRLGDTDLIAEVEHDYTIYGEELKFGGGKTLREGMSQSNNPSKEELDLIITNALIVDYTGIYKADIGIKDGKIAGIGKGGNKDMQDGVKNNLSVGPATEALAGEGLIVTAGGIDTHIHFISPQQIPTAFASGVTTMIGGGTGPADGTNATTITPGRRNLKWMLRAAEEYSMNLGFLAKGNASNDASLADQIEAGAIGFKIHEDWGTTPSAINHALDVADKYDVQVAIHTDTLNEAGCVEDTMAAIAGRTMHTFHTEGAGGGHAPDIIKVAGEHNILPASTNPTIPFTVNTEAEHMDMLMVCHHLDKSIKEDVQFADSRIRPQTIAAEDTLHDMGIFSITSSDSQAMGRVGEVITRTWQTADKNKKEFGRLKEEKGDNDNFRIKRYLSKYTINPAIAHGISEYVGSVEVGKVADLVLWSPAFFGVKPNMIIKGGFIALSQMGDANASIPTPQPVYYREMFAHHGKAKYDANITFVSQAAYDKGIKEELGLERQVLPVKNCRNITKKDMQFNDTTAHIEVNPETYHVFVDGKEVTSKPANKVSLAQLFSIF
Sequence (P14916 whole entry, further chain): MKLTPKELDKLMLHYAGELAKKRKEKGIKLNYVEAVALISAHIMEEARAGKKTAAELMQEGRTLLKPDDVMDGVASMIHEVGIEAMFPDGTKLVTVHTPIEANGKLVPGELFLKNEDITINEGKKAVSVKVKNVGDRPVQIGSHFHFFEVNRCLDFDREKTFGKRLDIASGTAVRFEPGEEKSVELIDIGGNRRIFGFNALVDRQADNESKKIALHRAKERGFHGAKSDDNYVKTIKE
assay: Inhibition of Helicobacter pylori ATCC 43504 urease-mediated ammonia production preincubated for 1.5 hrs by indophenol method
pIC50: −log10 of the molar value.
Criterion: pIC50 meeting or surpassing 3. Met: rule met. Not met: rule not met.

molecule: COc1ccc(C2COc3cc(OC)ccc3C2O)cc1 (stereo unspecified)
class name: rule not met
--
molecule: O=c1cc(-c2ccc(O)cc2)oc2cc(O)cc(O)c12 [APIGENIN]
class name: rule met
--
molecule: COc1ccc(C2COc3cc(OC)ccc3C2)cc1 (stereo unspecified)
class name: rule not met
--
molecule: O=C1CC(c2ccc(O)cc2)Oc2cc(O)cc(O)c21 (stereo unspecified)
class name: rule met
--
molecule: O=c1cc(-c2ccc(O)c(O)c2)oc2cc(O)cc(O)c12 [LUTEOLIN]
class name: rule met
--
molecule: COc1cc(OC)c2c(=O)cc(-c3ccccc3)oc2c1 [CHRYSIN DIMETHYL ETHER]
class name: rule not met
--
molecule: COc1ccc(C2=COc3cc(O)ccc3C2)cc1
class name: rule met
--
molecule: COc1ccc(C2CC(O)c3c(OC)c(OC)c(OC)c(OC)c3O2)cc1 (stereo unspecified)
class name: rule not met
--
molecule: COc1ccc(C2C=Cc3c(OC)c(OC)c(OC)c(OC)c3O2)cc1 (stereo unspecified)
class name: rule not met

----------
assay system: Urease subunit alpha/Urease subunit beta (Helicobacter pylori (strain ATCC 700392 / 26695) (Campylobacterpylori), UniProt P69996)
assay: Inhibition of Helicobacter pylori ATCC 43504 urease-mediated ammonia production preincubated for 1.5 hrs by indophenol method
pIC50: −log10 of the molar value.
reported property: pIC50

molecule: COc1cc(O)c(C(=O)CCc2ccccc2)c(OC)c1
endpoint result: 2.78
--
molecule: COc1ccc(C2=CCc3c(OC)c(OC)c(OC)c(OC)c3O2)cc1
endpoint result: 2.42
--
molecule: COc1ccc(C(C)C(=O)c2ccc(OC)cc2O)cc1 (stereo unspecified)
endpoint result: 2.66
--
molecule: COc1ccc(-c2coc3cc(OC)ccc3c2=O)cc1
endpoint result: 2.45
--
molecule: COc1ccc(-c2cc(=O)c3c(OC)c(OC)c(OC)c(OC)c3o2)cc1
endpoint result: 2.33
--
molecule: Oc1cc(O)c2c(c1)OC(c1ccc(O)c(O)c1)C=C2 (stereo unspecified)
endpoint result: 5.35

----------
assay system: Urease subunit alpha/Urease subunit beta (Helicobacter pylori (strain ATCC 700392 / 26695) (Campylobacterpylori))
assay: Competitive inhibition of Helicobacter pylori ATCC 43504 urease using urea as substrate by Lineweaver-Burk/Dixon plot analysis
pKi: −log10 of the molar value.

structure smiles: Oc1ccc(C2=COc3c(ccc(O)c3O)C2)cc1
pKi: 6.19

----------
assay system: Urease subunit alpha/Urease subunit beta (Helicobacter pylori (strain ATCC 700392 / 26695) (Campylobacterpylori), UniProt P69996)
assay: Inhibition of Helicobacter pylori ATCC 43504 urease-mediated ammonia production preincubated for 1.5 hrs by indophenol method
pIC50: −log10 of the molar value.
Criterion: pIC50 meeting or surpassing 4. Met: true. Not met: false.

compound: COc1ccc(-c2coc3cc(O)ccc3c2=O)cc1 [FORMONONETIN]
class name: false
//
compound: O=c1c(O)c(-c2ccc(O)c(O)c2)oc2cc(O)cc(O)c12 [QUERCETIN]
class name: true
//
compound: Oc1cc(O)c2c(c1)OC(c1ccccc1)C=C2 (stereo unspecified)
class name: true
//
compound: COc1ccc(C2COc3cc(O)ccc3C2)cc1 (stereo unspecified)
class name: false
//
compound: O=c1c(-c2ccc(O)cc2)coc2cc(O)ccc12 [DAIDZEIN]
class name: false
//
compound: Oc1ccc(C2=COc3c(ccc(O)c3O)C2)cc1
class name: true
//
compound: O=c1cc(-c2ccccc2)oc2cc(O)c(O)c(O)c12 [BAICALEIN]
class name: false
//
compound: O=c1cc(-c2ccccc2)oc2cc(O)cc(O)c12 [CHRYSIN]
class name: false
//
compound: Oc1cc2c(c(O)c1O)C=CC(c1ccccc1)O2 (stereo unspecified)
class name: true
//
compound: COc1cc(O)c(C(=O)/C=C/c2ccccc2)c(OC)c1 [FLAVOKAWAIN B]
class name: false
